- tgt: human recombinant COX-2 (Homo sapiens)
- Sequence (P35354 18-604): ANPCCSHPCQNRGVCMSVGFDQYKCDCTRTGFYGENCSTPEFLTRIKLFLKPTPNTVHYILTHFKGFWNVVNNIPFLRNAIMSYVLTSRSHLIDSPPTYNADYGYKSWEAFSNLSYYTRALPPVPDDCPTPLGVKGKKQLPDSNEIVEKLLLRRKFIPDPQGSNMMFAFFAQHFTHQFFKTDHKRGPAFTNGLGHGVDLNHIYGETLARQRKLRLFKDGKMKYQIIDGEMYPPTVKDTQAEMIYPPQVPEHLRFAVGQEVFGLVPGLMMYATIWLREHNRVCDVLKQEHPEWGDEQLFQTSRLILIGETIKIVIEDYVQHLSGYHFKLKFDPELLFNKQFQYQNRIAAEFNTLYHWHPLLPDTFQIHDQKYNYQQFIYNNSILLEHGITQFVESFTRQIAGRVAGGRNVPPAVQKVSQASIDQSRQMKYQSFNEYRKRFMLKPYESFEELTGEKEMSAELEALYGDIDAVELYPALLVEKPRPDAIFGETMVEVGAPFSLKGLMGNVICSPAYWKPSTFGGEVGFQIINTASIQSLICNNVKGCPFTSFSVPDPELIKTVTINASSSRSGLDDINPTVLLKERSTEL
- assay procedure: COX Activity Assay (Cayman), colorimetric, COX-2
- run parameters: read-out: IC50 for COX2
metric name: pIC50
Schema: pIC50 number; meaning minus log10 of the concentration expressed in molar units.

So what does the record say about pIC50 for CNC(=O)c1cnc(C)nc1-c1cc(C(C)(C)C)c(O)c(C(C)(C)C)c1 [Compound A] ?
4.22
